Values compiled from patent US20250250357A1.

- test.system: T1, human MSLN protein endogenously expressed on OVCAR3 tumor cells (human, UniProt Q13421 296-598)
- T1 construct: whole, on cells; Endogenous target on OVCAR3 cells; kept apart from the recombinant full-length construct; also called mesothelin
- T1 sequence (Q13421 other isoform, or with tags, fused parts or gaps): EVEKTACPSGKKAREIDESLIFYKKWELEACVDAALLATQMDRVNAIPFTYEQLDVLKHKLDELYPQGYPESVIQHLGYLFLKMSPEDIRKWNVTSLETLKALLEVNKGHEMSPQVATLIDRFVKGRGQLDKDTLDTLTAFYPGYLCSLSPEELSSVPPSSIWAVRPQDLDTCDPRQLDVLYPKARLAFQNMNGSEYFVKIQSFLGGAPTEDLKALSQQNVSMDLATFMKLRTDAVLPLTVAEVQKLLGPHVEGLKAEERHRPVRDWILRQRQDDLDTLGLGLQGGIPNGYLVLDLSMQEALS
- experiment.notes: FACS on OVCAR3 cells
measurement.name: pEC50
pEC50 here: minus log base 10 of the concentration, concentration in moles per litre.

Data request: Read the entry S009-F4-94.15 (antibody, human IgG1, kappa, V domains shown, human-murine chimeric antibody, human IgG1/kappa constant regions) VH: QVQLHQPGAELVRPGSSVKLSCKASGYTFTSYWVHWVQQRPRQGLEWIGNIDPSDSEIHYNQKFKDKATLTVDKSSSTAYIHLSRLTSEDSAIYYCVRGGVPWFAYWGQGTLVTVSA VL: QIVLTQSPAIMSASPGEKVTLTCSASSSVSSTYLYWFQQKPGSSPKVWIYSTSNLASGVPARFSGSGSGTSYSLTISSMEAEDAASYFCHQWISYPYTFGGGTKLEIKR and write its reported pEC50.
Data returned: 9.19

Data request: Read the entry S009-F6-76.1 (antibody, human IgG1, kappa, V domains shown, human-murine chimeric antibody, human IgG1/kappa constant regions) VH: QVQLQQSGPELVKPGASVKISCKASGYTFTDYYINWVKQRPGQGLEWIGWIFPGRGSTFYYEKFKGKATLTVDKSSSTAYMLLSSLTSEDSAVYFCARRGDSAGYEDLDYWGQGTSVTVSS VL: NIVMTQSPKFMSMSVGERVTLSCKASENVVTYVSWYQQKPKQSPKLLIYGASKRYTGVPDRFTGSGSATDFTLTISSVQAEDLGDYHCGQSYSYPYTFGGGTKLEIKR and write its reported pEC50.
Data returned: 8.38

Data request: Read the entry S009-F5-9.16 (antibody, human IgG1, kappa, V domains shown, human-murine chimeric antibody, human IgG1/kappa constant regions) VH: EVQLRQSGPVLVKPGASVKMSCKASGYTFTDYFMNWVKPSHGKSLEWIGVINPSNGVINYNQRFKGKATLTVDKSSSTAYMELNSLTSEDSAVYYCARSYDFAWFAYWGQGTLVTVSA VL: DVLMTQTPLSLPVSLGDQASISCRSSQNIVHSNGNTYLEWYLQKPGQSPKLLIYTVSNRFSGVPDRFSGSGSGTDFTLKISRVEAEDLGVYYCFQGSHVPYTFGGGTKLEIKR and write its reported pEC50.
Data returned: 9.09

Data request: Read the entry S009-F6-62.5 (antibody, human IgG1, kappa, V domains shown, human-murine chimeric antibody, human IgG1/kappa constant regions) VH: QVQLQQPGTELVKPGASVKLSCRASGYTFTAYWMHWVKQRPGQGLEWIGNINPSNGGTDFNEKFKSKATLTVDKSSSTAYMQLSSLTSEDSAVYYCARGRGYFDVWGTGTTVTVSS VL: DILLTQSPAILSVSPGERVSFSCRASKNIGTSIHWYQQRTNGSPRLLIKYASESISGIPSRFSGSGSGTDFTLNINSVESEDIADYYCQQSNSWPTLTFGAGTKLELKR and write its reported pEC50.
Data returned: 9.51
